# assayed target: Hepatocyte nuclear factor 6 (Homo sapiens) (UniProt Q9UBC0)
# Sequence (Q9UBC0 whole entry, looked up): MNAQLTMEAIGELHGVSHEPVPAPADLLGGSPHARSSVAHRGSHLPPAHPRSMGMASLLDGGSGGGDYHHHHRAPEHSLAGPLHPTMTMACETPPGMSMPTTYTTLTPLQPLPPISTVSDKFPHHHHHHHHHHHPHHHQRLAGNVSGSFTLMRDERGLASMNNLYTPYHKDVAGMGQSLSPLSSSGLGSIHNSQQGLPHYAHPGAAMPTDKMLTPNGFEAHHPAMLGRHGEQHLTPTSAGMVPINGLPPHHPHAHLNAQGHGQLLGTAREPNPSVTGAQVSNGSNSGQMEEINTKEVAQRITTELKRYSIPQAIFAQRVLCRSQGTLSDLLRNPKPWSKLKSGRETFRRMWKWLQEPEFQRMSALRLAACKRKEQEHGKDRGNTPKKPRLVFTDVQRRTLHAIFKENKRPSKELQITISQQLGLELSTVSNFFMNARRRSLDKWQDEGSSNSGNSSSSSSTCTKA
# procedure details: ATG_HNF6_CIS: Attagene CIS-FACTORIAL HepG2 Assay for human Hepatocyte Nuclear Factor 6 (HNF6) (AID 2282952)
# condition parameters: HepG2 Attagene cis-factorial HNF6 reporter transcription; actives raise or lower the signal
The source made the active and inactive calls. Rule for the calls: active = hit-call score of the fitted dose curve at least 0.9, where 1 is the maximum; inactive = score below 0.9.
Possible outcomes: active, inactive

>>> df
                                    compound       cat
 0  CCOC(=O)c1nc(C(Cl)(Cl)Cl)n(-c2ccc(Cl)cc2Cl)n1    active
 1                        CCN(CCC#N)c1ccccc1  inactive
 2  OCC(F)(F)C(F)(F)C(F)(F)C(F)(F)C(F)(F)C(F)(F)C(F)(F)C(F)(F)C(F)(F)C(F)(F)C(F)(F)F  inactive
 3                                      CC=O  inactive
 4         COC(O)c1ccccc1 (stereo not drawn)  inactive
 5                    FCOC(C(F)(F)F)C(F)(F)F  inactive
 6        c1cc2cccc3c4cccc5cccc(c(c1)c23)c54  inactive
 7  Brc1cc(Br)c(Oc2c(Br)cc(Br)c(Br)c2Br)cc1Br  inactive
 8                                    CCOC=O  inactive
 9                   O=C1OC(=O)C(F)(F)C1(F)F  inactive
10                                      NCCN  inactive
11          C=CC(F)(F)C(F)(F)C(F)(F)C(F)(F)F  inactive
12                    CCOC(OCC)C(=O)c1ccccc1  inactive
13  O=C(NCc1ncc(C(F)(F)F)cc1Cl)c1c(Cl)cccc1Cl  inactive
14  FC(F)(F)C1(F)C(F)(F)C(F)(F)C(F)(F)C(F)(C(F)(F)F)C1(F)F (stereo not drawn)  inactive
15  CC(C)(c1ccc(Oc2ccc(N)cc2)cc1)c1ccc(Oc2ccc(N)cc2)cc1  inactive
16    O=C1c2ccc(O)c(O)c2C(=O)c2c(O)ccc(O)c21  inactive
17                               NS(=O)(=O)O  inactive
18                   CC[N+](CC)(CC)Cc1ccccc1  inactive
19                                  CCC(=O)O  inactive
20                    CCC(=O)C=Cc1ccc(OC)cc1    active
21                                  CC(C)C=O  inactive
22  Cc1cc(Cc2cc(C)cc(C(C)(C)C)c2O)c(O)c(C(C)(C)C)c1    active
23  CC1COCc2cc3c(cc21)C(C)(C)C(C)C3(C)C (stereo not drawn)  inactive
24                         CCCCCCc1ccc(N)cc1  inactive
25                              CCCCCCCCCCCC  inactive
26   N=C(N)c1ccc(OCCCCCOc2ccc(C(=N)N)cc2)cc1  inactive
27  CCOC(=O)CN[C@@H](C(=O)N1CC[C@H]1C(=O)NCc1ccc(/C(N)=N/O)cc1)C1CCCCC1  inactive
